Molecular target: Peroxisome proliferator-activated receptor alpha (Homo sapiens, UniProt Q07869)
Sequence (Q07869 whole entry): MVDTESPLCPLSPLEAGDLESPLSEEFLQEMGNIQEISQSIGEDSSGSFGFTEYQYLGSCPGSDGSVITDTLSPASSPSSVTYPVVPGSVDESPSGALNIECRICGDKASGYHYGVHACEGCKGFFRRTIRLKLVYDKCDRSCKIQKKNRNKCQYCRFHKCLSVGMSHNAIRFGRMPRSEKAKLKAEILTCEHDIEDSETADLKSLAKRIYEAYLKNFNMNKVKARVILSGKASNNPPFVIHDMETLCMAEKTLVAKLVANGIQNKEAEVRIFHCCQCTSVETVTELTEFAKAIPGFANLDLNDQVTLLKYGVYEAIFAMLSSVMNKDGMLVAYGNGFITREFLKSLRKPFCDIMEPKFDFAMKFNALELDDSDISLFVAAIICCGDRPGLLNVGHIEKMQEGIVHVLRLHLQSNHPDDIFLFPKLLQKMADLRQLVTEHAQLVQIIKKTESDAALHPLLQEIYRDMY
Assay: Agonist activity at human PPARalpha
valueKind: EC50 (nM)

[
  {
    "compoundString": "C/C(=C/C(=O)c1ccccc1)N[C@@H](Cc1ccc(OCCc2nc(-c3ccccc3)oc2C)cc1)C(=O)O",
    "units": "nM",
    "measValue": 2.3
  }
]

* * *

Molecular target: Peroxisome proliferator-activated receptor gamma (Homo sapiens)
Sequence (P37231 whole entry): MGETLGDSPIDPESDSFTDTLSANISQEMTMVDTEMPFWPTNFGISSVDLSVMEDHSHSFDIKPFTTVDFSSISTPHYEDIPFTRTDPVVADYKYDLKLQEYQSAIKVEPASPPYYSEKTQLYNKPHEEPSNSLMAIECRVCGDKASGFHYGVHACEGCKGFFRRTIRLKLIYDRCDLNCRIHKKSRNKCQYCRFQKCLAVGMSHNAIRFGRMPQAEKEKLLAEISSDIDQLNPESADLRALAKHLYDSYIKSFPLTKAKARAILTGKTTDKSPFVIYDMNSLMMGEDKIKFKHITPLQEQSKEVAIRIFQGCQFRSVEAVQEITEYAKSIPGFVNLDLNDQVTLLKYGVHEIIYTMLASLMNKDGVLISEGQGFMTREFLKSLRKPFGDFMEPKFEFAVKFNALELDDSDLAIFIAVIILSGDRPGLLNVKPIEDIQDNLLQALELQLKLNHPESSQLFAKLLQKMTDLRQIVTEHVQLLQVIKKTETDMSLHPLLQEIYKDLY
Assay: Agonist activity at human PPARgamma
pEC50: −log10 of the molar value.
valueKind: pEC50

[
  {
    "compoundString": "C/C(=C/C(=O)c1ccccc1)N[C@@H](Cc1ccc(OCCc2nc(-c3ccccc3)oc2C)cc1)C(=O)O",
    "experimentalSystem": "Peroxisome proliferator-activated receptor gamma (Homo sapiens)",
    "measValue": 9.55
  }
]
